assay: Ocular tissue concentrations (aqueous humor, vitreous humor, iris, retina, choroid, cornea) after topical ocular, subcutaneous and intravitreal administration; assay type: in vivo, New Zealand White rabbits; conditions: New Zealand White, rabbit, vitreous humor, other: intravitreal, 2.5 mg per eye, Group 5 intravitreal 2.5 mg per eye; 6.0 hr; read-out: vitreous humor Average Conc.
experimental-endpoint: concentration at 6 h (ng/g)
Give just the numeric value; ng/g need not be written.

(Q) Query: concentration at 6 h; subject: COC(=O)N[C@@H](Cc1ccccc1)C(=O)N[C@@H](Cc1ccc(NS(=O)(=O)O)cc1)c1csc(-c2cccs2)n1 [Compound 1 free acid]
(A) 480000

----------
assay: Ocular tissue concentrations (aqueous humor, vitreous humor, iris, retina, choroid, cornea) after topical ocular, subcutaneous and intravitreal administration; format: in vivo, New Zealand White rabbits; settings: New Zealand White, rabbit, choroid, other: intravitreal, 2.5 mg/eye, Choroid, 48 hr, left eye, intravitreal 2.5 mg/eye (group 5), individual animals; read-out: Conc. (ng/g) OS
experimental-endpoint: concentration at 48 hr

(Q) So what's the measured concentration at 48 hr for this one? COC(=O)N[C@@H](Cc1ccccc1)C(=O)N[C@@H](Cc1ccc(NS(=O)(=O)O)cc1)c1csc(-c2cccs2)n1 [Compound 1]
(A) 103000 ng/g

----------
experiment: Plasma concentrations and pharmacokinetic parameters after topical ocular, subcutaneous and intravitreal administration; type: in vivo, New Zealand White rabbits; conditions: New Zealand White, rabbit, plasma, subcutaneous, 5 mg/kg/dose, subcutaneous 5 mg/kg/dose, suspension; 0.50 hr; read-out: plasma Conc., individual rabbit
experimental-endpoint: concentration at 0.5 hr (ng/mL)
Give the quantity in ng/mL, number only.

(Q) Requested field: concentration at 0.5 hr. Item: COC(=O)N[C@@H](Cc1ccccc1)C(=O)N[C@@H](Cc1ccc(NS(=O)(=O)O)cc1)c1csc(-c2cccs2)n1 [Compound 1 free acid]
(A) 272

----------
test: Ocular tissue concentrations (aqueous humor, vitreous humor, iris, retina, choroid, cornea) after topical ocular, subcutaneous and intravitreal administration; type: in vivo, New Zealand White rabbits; conditions: New Zealand White, rabbit, aqueous humor, other: intravitreal, 2.5 mg per eye, Group 5 intravitreal 2.5 mg per eye; 48 hr; read-out: aqueous humor Average Conc.
experimental-endpoint: concentration at 48 hr (ng/g)
Express it in ng/g; write the number only.

(Q) What measured concentration at 48 hr goes with COC(=O)N[C@@H](Cc1ccccc1)C(=O)N[C@@H](Cc1ccc(NS(=O)(=O)O)cc1)c1csc(-c2cccs2)n1 [Compound 1 free acid] ?
(A) 915

----------
test: Plasma concentrations and pharmacokinetic parameters after topical ocular, subcutaneous and intravitreal administration; type: in vivo, New Zealand White rabbits; conditions: New Zealand White, rabbit, plasma, sc, 5 mg/kg, plasma; subcutaneous 5 mg/kg/dose, suspension; read-out: tmax
experimental-endpoint: Tmax (min)
Write the number in min without appending the unit.

(Q) Which Tmax value belongs to COC(=O)N[C@@H](Cc1ccccc1)C(=O)N[C@@H](Cc1ccc(NS(=O)(=O)O)cc1)c1csc(-c2cccs2)n1 [Compound 1 free acid] ?
(A) 15

----------
test: Ocular tissue concentrations (aqueous humor, vitreous humor, iris, retina, choroid, cornea) after topical ocular, subcutaneous and intravitreal administration; assay type: in vivo, New Zealand White rabbits; conditions: New Zealand White, rabbit, iris homogenate, subcutaneous, 5 mg/kg/dose, Iris homogenate, 1 hr, OS; free acid, subcutaneous 5 mg/kg/dose, Group 3; read-out: Iris Conc. (ng/mL) OS
experimental-endpoint: concentration at 1 h (ng/mL)
Please give a number only; it is taken to be in ng/mL.

(Q) Fill in the blank: the reported concentration at 1 h of COC(=O)N[C@@H](Cc1ccccc1)C(=O)N[C@@H](Cc1ccc(NS(=O)(=O)O)cc1)c1csc(-c2cccs2)n1 is ____.
(A) 4.33
